// reported CHO-hCD40L-driven Human B Cell Proliferation EC50 per item
Biological target: T1, human CD40L, membrane-bound on cells (human, UniProt P29965 1-261)
T1 sequence: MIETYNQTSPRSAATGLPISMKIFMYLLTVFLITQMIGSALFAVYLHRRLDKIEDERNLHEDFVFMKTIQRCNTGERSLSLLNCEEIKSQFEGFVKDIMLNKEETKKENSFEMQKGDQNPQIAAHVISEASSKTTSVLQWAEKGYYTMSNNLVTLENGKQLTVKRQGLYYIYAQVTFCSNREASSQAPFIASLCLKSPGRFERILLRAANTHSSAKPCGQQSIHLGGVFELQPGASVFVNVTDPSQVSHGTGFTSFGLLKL
Assay: cell-based or functional assay
Numeric only. Scale: nM

Consider the following illustrative entries.
Q. Give the measured CHO-hCD40L-driven Human B Cell Proliferation EC50 for BMS2h-116-1320 (other) VL: DIQMTQSPSSLSAYVGDRVTITCRASQPIGPDLLWYQQKPGKAPKLLIYQTSILRSGVPSRFSGSGSETDFTLTISNLQPEDFAKYYCQQYWAFPVTFGQGTKVVIKR
A. 138

Q. Give the measured CHO-hCD40L-driven Human B Cell Proliferation EC50 for BMS2h-116-1312 (other) VL: DIQMTQSPSSLSASVGDRVTITCRASQPIGPDLLWYQQKPGKAPKLLIYQTSILRSGVPSRFSGSGSETDFTLTISNLQPEDLATYYCQQYWAFPVTFGKGTKVVIKR
A. 530

Q. Give the measured CHO-hCD40L-driven Human B Cell Proliferation EC50 for BMS2h-503-2 (other) VL: DIQMTQSPSSLSASVGDRVTITCRASHDIQRYLSWYQQKPGKAPKLLILWGSQLQSGVPSRFSGSGSGTDFTLTISSLQPEDFATYYCGQWWAPPQTFGQGTKVEIKR
A. 3000

Please find the next binder below.
Q. Give the measured CHO-hCD40L-driven Human B Cell Proliferation EC50 for BMS2h-503-1 (other) VL: DIQMTQSPSSLSASVGDRVTITCRASHHIQRYLSWYQQKPGKAPKLLILWGSQLQSGVPSRFSGSGSGTDFTLTISSLQPEDFATYYCGQWWAPPQTFGQGTKVEIKR
A. 2300
